assay: NCI Yeast Anticancer Drug Screen. Data for the mlh1 rad18 strain (AID 175); conditions: S. cerevisiae mlh1 rad18 strain growth inhibition; at 50.0 µM
Compounds without any hit were thinned out: in the full panel of roughly 79,000, 15% have a hit. Active and inactive are the calls of the source. Rule as the data show it: active = growth inhibition above about 70%; inactive = the rest.
Possible outcomes: T = active, F = inactive

COMPOUND: COc1ccc2ccc3ccccc3c2c1C=O
CAT: F
--
COMPOUND: O=C1Nc2ccccc2/C1=C/COc1ccccc1
CAT: T
--
COMPOUND: COc1cc(C2C3=C(COC3=O)Oc3cc4c(cc32)OCO4)ccc1O (centres undefined)
CAT: T
--
COMPOUND: CC(C)(Br)C(=O)/C=C/c1ccc(Cl)c(Cl)c1
CAT: T
--
COMPOUND: c1ccc2c(c1)NC(NC1Nc3ccccc3N1)N2
CAT: F
--
COMPOUND: O=C(COC(=O)c1cc(O)c(O)c(O)c1)c1ccc(-c2ccccc2)cc1
CAT: F
--
COMPOUND: CSC(=S)Nc1cccc(C)n1
CAT: T
--
COMPOUND: CCCCCCCCCCC1CCC(=O)O1 (centres undefined)
CAT: T
--
COMPOUND: COc1ccc2nc3cccc([N+](=O)[O-])c3c(NCCN(CCO)CCO)c2c1
CAT: T
--
COMPOUND: O=C(O)C1OC1(c1cccc(Cl)c1)c1ccccc1Cl (centres undefined)
CAT: T
--
COMPOUND: O=C(N=Nc1ccccc1Cl)NNc1ccccc1Cl
CAT: F
--
COMPOUND: CC(C)(C)c1nc2c(o1)C(=O)c1ccccc1C2=O
CAT: T
--
COMPOUND: CC1CCN(CCC(=O)c2ccc(Cl)cc2)CC1
CAT: F
--
COMPOUND: C=CC(C)(O)CCC1C(=C)C(O)CC2C(C)(C)CCCC12C (centres undefined)
CAT: F
--
COMPOUND: CC(=O)Nc1ccc(/C=C(\C#N)c2ccc(C)cc2)cc1
CAT: F
--
COMPOUND: CC[n+]1ccc2c(C)c3[nH]c4ccc(O)cc4c3c(C)c2c1
CAT: F
--
COMPOUND: CCNc1nnc(CSc2nc(-c3ccccc3)c(-c3ccccc3)[nH]2)s1
CAT: T
--
COMPOUND: O=[N+]([O-])c1ccc([N+]2=NC(c3ccccc3)=NN(c3ccccc3)C2)cc1
CAT: T
--
COMPOUND: Nc1nc(-c2cccnc2)cc(-c2cc(-c3cccnc3)nc(N)n2)n1
CAT: F
--
COMPOUND: NNc1c(F)c(F)cc(F)c1F
CAT: F
--
COMPOUND: OC1(c2ccccc2)CSC2=Nc3ccccc3C3CCN1N23 (centres undefined)
CAT: T
--
COMPOUND: O=C(O)c1cccc(-c2c3ccc(=O)cc-3oc3cc(O)ccc23)c1
CAT: F
--
COMPOUND: O=C1C=CC(=O)c2c(O)c(Nc3ccc(OC(F)(F)F)cc3)c(Cl)c(O)c21
CAT: F
--
COMPOUND: CCN(CC)CC[n+]1ccc2c(C)c3[nH]c4ccc(O)cc4c3c(C)c2c1
CAT: F

---

experiment: NCI Yeast Anticancer Drug Screen. Data for the rad18 strain (AID 177); settings: S. cerevisiae rad18 mutant growth inhibition; at 33.0 µM; stronger effect = higher value
The panel holds about 79,000 compounds, 15% with a hit somewhere; the sample as a whole holds those more often. Calls of active or inactive are those of the source. Rule as the data show it: active = growth inhibition above about 70%; inactive = the rest.
Listed next: entries and their corresponding growth inhibition.
PROPERTY_MEASURED: growth inhibition

SMILES: CCOC(=O)c1cnc2c(C(F)(F)F)cccc2c1N=[N+]=[N-]
PROPERTY_MEASURED: growth inhibition
VALUE_REPORTED: 40% (inactive)
--
SMILES: Nc1nc(-c2cccnc2)cc(-c2cc(-c3cccnc3)nc(N)n2)n1
PROPERTY_MEASURED: growth inhibition
VALUE_REPORTED: -18% (inactive)
--
SMILES: O=C1c2ccccc2C(=O)c2cc(CBr)ccc21
PROPERTY_MEASURED: growth inhibition
VALUE_REPORTED: 78% (active)
--
SMILES: CC(C)C1=CC2=C[C@H](O)[C@H]3C(C)(C)CCC[C@]3(C)C2=C(O)C1=O
PROPERTY_MEASURED: growth inhibition
VALUE_REPORTED: 99% (active)
--
SMILES: Cc1ccc(S(=O)(=O)Oc2cc(Cl)c(Cl)cc2Cl)cc1
PROPERTY_MEASURED: growth inhibition
VALUE_REPORTED: -3% (inactive)
--
SMILES: CC(=O)Oc1ccc2c(c1)Cc1cc(N=C3C=CC(=O)O3)ccc1-2
PROPERTY_MEASURED: growth inhibition
VALUE_REPORTED: 98% (active)
--
SMILES: COC(=O)c1cc(-c2ccc(C)cc2)[nH]c(=O)c1C#N
PROPERTY_MEASURED: growth inhibition
VALUE_REPORTED: -11% (inactive)
--
SMILES: O=C(O)CNc1ccc(Cl)c(Cl)c1
PROPERTY_MEASURED: growth inhibition
VALUE_REPORTED: 76% (active)
--
SMILES: COP(=O)(OC)/C(=C\C1=CN(C(c2ccccc2)(c2ccccc2)c2ccccc2)CN1)NC=O
PROPERTY_MEASURED: growth inhibition
VALUE_REPORTED: 40% (inactive)
--
SMILES: CCCCCCCCCCCC(=O)N(C)C
PROPERTY_MEASURED: growth inhibition
VALUE_REPORTED: 15% (inactive)
--
SMILES: O=C1C=CC(=O)c2c(O)c(Nc3ccc(OC(F)(F)F)cc3)c(Cl)c(O)c21
PROPERTY_MEASURED: growth inhibition
VALUE_REPORTED: 45% (inactive)
--
SMILES: CCCCCCCCCCNC(=O)OCC
PROPERTY_MEASURED: growth inhibition
VALUE_REPORTED: 11% (inactive)

---

assay: NCI Yeast Anticancer Drug Screen. Data for the rad14 strain (AID 159);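 also: 0% = growth of vehicle-treated control cultures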; details: S. cerevisiae rad14 strain growth inhibition; at 1.2 µM; stronger effect = higher value
Compounds without any hit were thinned out: in the full panel of roughly 79,000, 15% have a hit.
Listed next: entries and their corresponding growth inhibition.

MOLECULE: CNC(=O)OCc1c(COC(=O)NC)c(-c2ccc(-c3ccccc3)cc2)n(C)c1C
UNIT: %
growth inhibition: -13
--
MOLECULE: NC(=S)N/N=C\c1nccc2ccccc12
UNIT: %
growth inhibition: -3
--
MOLECULE: Cc1cc(CO)c(O)c(CNCc2cc(C)cc(CO)c2O)c1
UNIT: %
growth inhibition: -16
--
MOLECULE: O=C(O)CNc1ccc(Cl)c(Cl)c1
UNIT: %
growth inhibition: -6
--
MOLECULE: CC(CC(C)(C)[N+](C)(C)C)[N+](C)(C)C (configuration not stated)
UNIT: %
growth inhibition: 2
--
MOLECULE: CCCCN1C(=O)N(c2ccc(OCC)cc2)C2N(CCCC)C1C(C)(C)C2(C)C (configuration not stated)
UNIT: %
growth inhibition: -1
--
MOLECULE: O=CNc1ccc2c(c1)C(=O)c1ccccc1-2
UNIT: %
growth inhibition: 5
--
MOLECULE: N#CSc1ccc(S(N)(=O)=O)cc1
UNIT: %
growth inhibition: -36
--
MOLECULE: CN(C)Cc1cc(N=Nc2ccc(Cl)cc2)cc(CN(C)C)c1O
UNIT: %
growth inhibition: 12
--
MOLECULE: O=C(O)C1CCCCC1c1c2ccc(=O)c(O)c-2oc2c(O)c(O)ccc12 (configuration not stated)
UNIT: %
growth inhibition: -17
--
MOLECULE: O=[n+]1c2ccc(Cl)cc2n([O-])c2ccc(Cl)cc21
UNIT: %
growth inhibition: 0
--
MOLECULE: CCCc1cc(C(=O)OCC)cc(CCC)c1O
UNIT: %
growth inhibition: -1

---

assay: NCI Yeast Anticancer Drug Screen. Data for the rad50 strain (AID 155);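 also: 0% = growth of vehicle-only cultures of the same strain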; conditions: S. cerevisiae rad50 strain growth inhibition; at 1.2 µM; stronger effect = higher value
The panel holds about 79,000 compounds, 15% with a hit somewhere; the sample as a whole holds those more often.

MOLECULE: Oc1ccc(NCn2c(=S)sc3ccccc32)cc1
UNIT: %
growth inhibition: -2

MOLECULE: CCN(CC)CCC(=O)c1ccc(Oc2ccc(F)cc2)cc1
UNIT: %
growth inhibition: -5

MOLECULE: O=C1C2C(C(=O)N1c1ccc(OCc3ccccc3)cc1)C1c3ccccc3C2C2CCCCN21 (stereo not drawn)
UNIT: %
growth inhibition: 3

MOLECULE: CCOC(=O)c1cnc2cc(C(F)(F)F)ccc2c1N=[N+]=[N-]
UNIT: %
growth inhibition: 8

MOLECULE: C/C(=N\NC(=S)N1CCCCC1)c1cccc(C)n1
UNIT: %
growth inhibition: 23

MOLECULE: CSC(=S)N/N=C(\C)c1cccc(C)n1
UNIT: %
growth inhibition: -4

MOLECULE: CCCCCCCC1(N=[N+]=[N-])C(=O)c2ccccc2N(C)C1=O (stereo not drawn)
UNIT: %
growth inhibition: -1

MOLECULE: CCS(=O)(=O)c1ccc(/C=C/C=N/NC(=S)NCC(C)C)cc1
UNIT: %
growth inhibition: 6

MOLECULE: c1ccc(-c2ccnc3c2ccc2c(-c4ccccc4)ccnc23)cc1
UNIT: %
growth inhibition: 7

MOLECULE: O=c1c2ccccc2ncn1COCc1ccccc1
UNIT: %
growth inhibition: -10

MOLECULE: OC1CCCc2c1cc1ccc3cccc4ccc2c1c34 (stereo not drawn)
UNIT: %
growth inhibition: -17

MOLECULE: Cc1ccc(Cl)c2[nH]c(-c3ccccc3)cc(=O)c12
UNIT: %
growth inhibition: -1

MOLECULE: N#CN=Nc1cc(Cl)c(N=NC#N)cc1Cl
UNIT: %
growth inhibition: -15

MOLECULE: FC(F)(F)c1cc(NC(=S)N2c3ccccc3-n3cccc3C2c2cccnc2)cc(C(F)(F)F)c1 (stereo not drawn)
UNIT: %
growth inhibition: -13

MOLECULE: COc1ccc2nc3c([N+](=O)[O-])ccc(NCCN(C)C)c3c(NCCN(C)C)c2c1
UNIT: %
growth inhibition: -1

MOLECULE: CC(=O)Nc1ccc(/C=C(\C#N)c2ccc(C)cc2)cc1
UNIT: %
growth inhibition: -25

MOLECULE: CC(C)/C(Cl)=N\OC(=O)Nc1ccc(F)cc1
UNIT: %
growth inhibition: 5

MOLECULE: COC(=O)CSSCc1ccc([N+](=O)[O-])cc1
UNIT: %
growth inhibition: 4

MOLECULE: CC1CCN(CCC(=O)c2ccc(Cl)cc2)CC1
UNIT: %
growth inhibition: 12

MOLECULE: COCCOC(=O)CCn1cc(F)c(=O)[nH]c1=O
UNIT: %
growth inhibition: -5

MOLECULE: CCC(=O)OCCn1c2nc(=O)[nH]c(=O)c-2nc2cc(C)c(C)cc21
UNIT: %
growth inhibition: -57

MOLECULE: Cn1c(=O)c2ccccc2c2ccccc21
UNIT: %
growth inhibition: -3

MOLECULE: Cc1c(Cl)ccc2c1S(=O)(=O)c1cccc(Cl)c1-2
UNIT: %
growth inhibition: -22

MOLECULE: CC1(C)C(=O)OC(n2cc(F)c(=O)[nH]c2=O)C1=O (stereo not drawn)
UNIT: %
growth inhibition: -11

MOLECULE: Fc1ccc(NC(=S)SCc2ccc3c(c2)OCO3)cc1F
UNIT: %
growth inhibition: -9

MOLECULE: CCCCCCCCCCC(=O)Cl
UNIT: %
growth inhibition: 14

MOLECULE: COC1=CC(=O)C2C(C1=O)C(c1ccc(Cl)cc1)[C@@H]2C (stereo partly drawn)
UNIT: %
growth inhibition: 2

MOLECULE: Cc1c(C(Cc2ccccc2N(C)C(=O)/C=C\C(=O)O)c2c[nH]c3ccccc23)c2ccccc2n1C (stereo not drawn)
UNIT: %
growth inhibition: 1

MOLECULE: O=C1C=CC(=C(c2ccccc2)c2ccccc2)c2ccccc21
UNIT: %
growth inhibition: 7

MOLECULE: C/C(=N\NC(=S)SCc1ccccc1)c1ccccn1
UNIT: %
growth inhibition: 17

MOLECULE: O=C(c1cc(Br)ccc1O)c1cc(Br)ccc1O
UNIT: %
growth inhibition: 13

MOLECULE: c1ccc2c(c1)sc1cc3ccncc3cc12
UNIT: %
growth inhibition: -6

MOLECULE: COc1cc(C2SCC(=O)N2c2nnc(C(F)(F)F)s2)cc(OC)c1OC (stereo not drawn)
UNIT: %
growth inhibition: -1

MOLECULE: CC(=O)OCC(=O)C1(O)CCC2C3CCC4CCCCC4(C)C3CCC21C (stereo not drawn)
UNIT: %
growth inhibition: 13

MOLECULE: N#CC(C(=O)Nc1ccccc1)C1=C(Cl)C(=O)c2ccccc2C1=O (stereo not drawn)
UNIT: %
growth inhibition: 4

MOLECULE: COc1cc(C2c3cc4c(cc3OC(NNc3ccccc3)C2C)OCO4)cc(OC)c1OC (stereo not drawn)
UNIT: %
growth inhibition: 23

MOLECULE: Cc1nn(-c2cc(Cl)ccc2[N+](=O)[O-])c(C)c1Cl
UNIT: %
growth inhibition: 0

MOLECULE: NC(N)=N/N=C\c1c2ccccc2cc2ccccc12
UNIT: %
growth inhibition: -16

MOLECULE: Cc1ccc(N)c(S)c1
UNIT: %
growth inhibition: -34

MOLECULE: Cc1ccc(Nc2nc3c(=O)n(C)c(=O)n(C)c3nc2Nc2ccc(C)cc2)cc1
UNIT: %
growth inhibition: -2

MOLECULE: COc1ccc(NC(=S)N/N=C(\c2ccccc2)c2ccccn2)cc1
UNIT: %
growth inhibition: 0

MOLECULE: O=[N+]([O-])c1cc(CCl)ccc1CCl
UNIT: %
growth inhibition: 7

MOLECULE: N/C(=N\OC(=O)NC(Cl)=C(Cl)Cl)c1cc(C(F)(F)F)cc(C(F)(F)F)c1
UNIT: %
growth inhibition: -10

MOLECULE: [N-]=N[N+]#I1OC(C(F)(F)F)(C(F)(F)F)c2ccccc21
UNIT: %
growth inhibition: 58

MOLECULE: O=c1ssc2ncccc12
UNIT: %
growth inhibition: 15

MOLECULE: O=C(Cc1csc2[n+]1C(=O)/C(=C/c1ccc(Cl)cc1)S2)Nc1ccccc1
UNIT: %
growth inhibition: -2

MOLECULE: Nc1ccc2c(c1)C(=O)c1cccc(N)c1C2=O
UNIT: %
growth inhibition: 10

MOLECULE: CCCCCCCCCCCCCC[N+](C)(CC(=O)[O-])Cc1ccccc1 (stereo not drawn)
UNIT: %
growth inhibition: 8
